- TARGET OR SYSTEM: HLA-B*5101 (human)
- TEST NAME: competition vs 125I probe peptide, purified HLA
PROPERTY LABEL: IC50 (nM)

[P] FPALNKMI [p53.127.F1I8]
[Q] FPILTIITI [p53.249.F1I9]
Task for the reader: decide whether P or Q has the larger IC50. Which one? Tell me its label.
P
